The values you see were collected from paper PMC11633360.

test: DPPH radical scavenging activity; settings: DPPH 300 μM in methanol, 30 minutes, 25 °C
Threshold 900 µM. IC50 below it: Met. IC50 at it or above: Not met.

INSERT INTO assay_data (compound, label_value) VALUES
  ('CN1CCN(c2n[nH]c3ncnc(N)c23)CC1', 'Met'),
  ('Nc1ncnc2[nH]nc(N3CCOCC3)c12', 'Not met'),
  ('O=C1O[C@H]([C@@H](O)CO)C(O)=C1O [Ascorbic acid, reference compound]', 'Met'),
  ('Nc1ncnc2[nH]ncc12 [Compound 4, 1H‐Pyrazolo[3,4–d]pyrimidin‐4‐Amine]', 'Not met'),
  ('FC(F)(F)Oc1ccc(Nc2ccnc3cc(Cl)ccc23)cc1', 'Not met'),
  ('CCN1CCN(c2n[nH]c3ncnc(N)c23)CC1', 'Not met'),
  ('Nc1ncnc2[nH]nc(N3CCN(CCO)CC3)c12', 'Not met'),
  ('O=[N+]([O-])c1ccc(Nc2ccnc3cc(Cl)ccc23)cc1', 'Met'),
  ('CCN1CCN(c2nn(-c3ccnc4cc(Cl)ccc34)c3ncnc(N)c23)CC1 [Compound 10f]', 'Not met'),
  ('Fc1ccc(Nc2ccnc3cc(Cl)ccc23)cc1 [Compound 12b]', 'Not met');

====

test: Nitric oxide (NO) scavenging activity; details: sodium nitroprusside, pH 7.4, 2 hr, 37 °C, Griess reagent
compounds and their reported IC50
assay.metric: IC50 (µM)

INSERT INTO measurements (compound, assay_metric, lt_gt_eq, quantitative_result) VALUES
  ('Nc1ncnc2[nH]nc(N3CCCCC3)c12 [Compound 8a]', 'IC50', '=', 800),
  ('CC1CCN(c2n[nH]c3ncnc(N)c23)CC1 [Compound 8b]', 'IC50', '=', 1010),
  ('CN1CCN(c2nn(-c3ccnc4cc(Cl)ccc34)c3ncnc(N)c23)CC1 [Compound 10e]', 'IC50', '>', 4000),
  ('CCN1CCN(c2n[nH]c3ncnc(N)c23)CC1 [Compound 8e]', 'IC50', '=', 980),
  ('Clc1ccc(Nc2ccnc3cc(Cl)ccc23)cc1 [Compound 12c]', 'IC50', '>', 4000);

====

Assay: Nitric oxide (NO) scavenging activity
Conditions: sodium nitroprusside, pH 7.4, 2 hr, 37 °C, Griess reagent
Procedure: The NO radical mop‐up ability of the compounds was evaluated using Kurian et al.[49] previous protocol. […] After 2 hr equilibration at 37 °C, 0.250 mL of Griess reagent was added, and the absorbance of the coloured solution produced was measured at 545 nm against a blank solution lacking the test samples. Subsequently, the % NO scavenging antioxidant capacity of the compounds was expressed as: %Nitricoxidescavenging=1-TestsampleAbs/BlankAbs×100
pIC50: −log10 of the molar value.
Mark 0 (no) for pIC50 values under 3, and 1 (yes) for everything at or above.

INSERT INTO results (molecule, label_value) VALUES
  ('O=C1O[C@H]([C@@H](O)CO)C(O)=C1O [Ascorbic acid, reference compound]', '0 (no)'),
  ('FC(F)(F)Oc1ccc(Nc2ccnc3cc(Cl)ccc23)cc1', '0 (no)'),
  ('Nc1ncnc2[nH]ncc12 [Compound 4, 1H‐Pyrazolo[3,4–d]pyrimidin‐4‐Amine]', '1 (yes)'),
  ('Clc1ccc2c(Nc3ccccc3)ccnc2c1 [Compound 12a, 7‐Chloro‐N‐Phenylquinolin‐4‐Amine]', '1 (yes)'),
  ('Nc1ncnc2c1cnn2-c1ccnc2cc(Cl)ccc12 [Compound 10a]', '0 (no)'),
  ('Cc1ccc(Nc2ccnc3cc(Cl)ccc23)cc1 [Compound 12e, 7‐Chloro‐N‐(p–tolyl)quinolin‐4‐Amine]', '0 (no)'),
  ('Nc1ncnc2c1c(N1CCN(CCO)CC1)nn2-c1ccnc2cc(Cl)ccc12', '1 (yes)'),
  ('Nc1ncnc2c1c(N1CCOCC1)nn2-c1ccnc2cc(Cl)ccc12 [Compound 10d]', '0 (no)'),
  ('CC1CCN(c2nn(-c3ccnc4cc(Cl)ccc34)c3ncnc(N)c23)CC1 [Compound 10c]', '0 (no)'),
  ('Fc1ccc(Nc2ccnc3cc(Cl)ccc23)cc1 [Compound 12b]', '0 (no)'),
  ('O=[N+]([O-])c1ccc(Nc2ccnc3cc(Cl)ccc23)cc1', '1 (yes)'),
  ('Nc1ncnc2c1c(N1CCCCC1)nn2-c1ccnc2cc(Cl)ccc12 [Compound 10b]', '0 (no)'),
  ('CCN1CCN(c2nn(-c3ccnc4cc(Cl)ccc34)c3ncnc(N)c23)CC1 [Compound 10f]', '1 (yes)'),
  ('Nc1ncnc2[nH]nc(N3CCN(CCO)CC3)c12', '1 (yes)'),
  ('Clc1ccc2c(Nc3ccc(Br)cc3)ccnc2c1 [Compound 12d]', '0 (no)'),
  ('CN1CCN(c2n[nH]c3ncnc(N)c23)CC1', '1 (yes)');
